Molecular target: Casp6 (Homo sapiens)
Sequence (P55212 24-179 limits assumed): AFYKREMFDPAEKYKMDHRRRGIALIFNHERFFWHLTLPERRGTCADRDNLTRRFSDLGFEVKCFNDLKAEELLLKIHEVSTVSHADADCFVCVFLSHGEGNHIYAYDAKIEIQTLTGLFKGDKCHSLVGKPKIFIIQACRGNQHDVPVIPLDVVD
Sequence (P55212 194-293 limits assumed): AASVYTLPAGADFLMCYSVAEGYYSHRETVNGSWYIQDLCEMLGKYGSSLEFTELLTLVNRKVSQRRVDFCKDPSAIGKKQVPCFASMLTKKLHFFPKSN
*1 amine or outer side, *2 acyl side, *3 side chain or, on linkers, in order; H or OH if unused. Where a SMILES comes first, the peptide text is derived from it. [ ]: non-standard residue; d: D form. X1 = Cc1ccc2c(c1)CCN([*:1])[C@@H]2C(=O)[*:2]
Kindly state Ki for each of the entries shown.

# input Provide Ki, system Casp6 (Homo sapiens), entry CC(=O)N[C@H](C(=O)N[C@@H](CC(=O)O)C(=O)N[C@H](C(=O)N1CCc2cc(C)ccc2[C@H]1C(=O)N[C@H](C=O)CC(=O)O)C(C)C)C(C)C [Compound 2b] (Ac-VDV[X1]D-aldehyde)
# output > 100 µM

# input Provide Ki, system Casp6 (Homo sapiens), entry Cc1ccc2c(c1)CCN(C(=O)[C@@H](NC(=O)[C@H](CCCC(=O)O)NC(=O)[C@@H]1Cc3ccccc3N1)C(C)C)[C@@H]2C(=O)N[C@H](C#N)CC(=O)O
# output > 100 µM
